# procedure.details: Body weight in the HCC1806 xenograft study
# Assay type: in vivo, BALB/c nude mice
# measurement.setup: group mean, 30 mg/kg P.O. BID, day 14
Let's look at some compounds and their measured Body weight D14.
Give just the numeric value; g need not be written.

C[C@@]1(O)CCC[C@H]1n1c(=O)c(C(F)F)cc2cnc(NC3CCN(S(C)(=O)=O)CC3)nc21 [Comp. 5, reference compound]
18.25

Input line: // Body weight D14 lookup, key: [2H]C([2H])([2H])c1cc2cnc(NC3CCN(S(C)(=O)=O)CC3)nc2n([C@@H]2CCC[C@@]2(C)O)c1=O
Output line: 18.80

Input line: Also check Cc1cc2cnc(NC3CCN(S(C)(=O)=O)CC3)nc2n([C@@H]2CCC[C@@]2(C)O)c1=O [Comp. 4, reference compound]
Output line: 19.85

Input line: Also check [2H]C(F)(F)c1cc2cnc(NC3CCN(S(C)(=O)=O)CC3)nc2n([C@@H]2CCC[C@@]2(C)O)c1=O
Output line: 17.75

Input line: Also check [2H]C([2H])([2H])c1cc2cnc(NC3([2H])C([2H])([2H])CN(S(C)(=O)=O)CC3([2H])[2H])nc2n([C@@H]2CCC[C@@]2(C)O)c1=O
Output line: 17.86

Input line: Also check [2H]C([2H])([2H])c1cc2cnc(NC3([2H])C([2H])([2H])CN(S(=O)(=O)C([2H])([2H])[2H])CC3([2H])[2H])nc2n([C@@H]2CCC[C@@]2(C)O)c1=O
Output line: 18.32

###

Let's look at some compounds and their measured Tumor Growth Inhibition D21.
# System: HCC1806 s.c. xenografts
# procedure.details: HCC1806 s.c. breast cancer xenograft efficacy (tumor volume, relative tumor volume, tumor weight, TGI)
# Format: in vivo, BALB/c nude mice
# measurement.setup: 30 mg/kg P.O. BID, vs control vehicle, day 21
# Protocol: The in vivo potency of anti-tumor activities of Comp. 4, Comp. 37, Comp. 5, Comp. 28, Comp. 163, and Comp. 164 have been evaluated on the growth of HCC1806 s.c. xenografts in BALB/c nude mice. The testing compounds Comp. 4, Comp. 37, Comp. 5, Comp. 28, Comp. […] The body weight of the testing animals were measured twice a week after grouping. Tumor volumes by the length and width of the tumor were measured by electric calipers and the tumor volume (V) was calculated as follows: V=(length×width^2)/2. […]
Give just the numeric value; % need not be written.

Here's what some known entries look like.
[2H]C(F)(F)c1cc2cnc(NC3CCN(S(C)(=O)=O)CC3)nc2n([C@@H]2CCC[C@@]2(C)O)c1=O
34.01
[2H]C([2H])([2H])c1cc2cnc(NC3CCN(S(C)(=O)=O)CC3)nc2n([C@@H]2CCC[C@@]2(C)O)c1=O
46.8

Input line: // Tumor Growth Inhibition D21 lookup, key: C[C@@]1(O)CCC[C@H]1n1c(=O)c(C(F)F)cc2cnc(NC3CCN(S(C)(=O)=O)CC3)nc21 [Comp. 5, reference compound]
Output line: 44.1

###

# procedure.details: in vitro
# measurement.setup: human, microsomes, pH 7.4, t1/2 human
Let's look at some compounds and their measured half-life at 1 μM.
Give just the numeric value; h need not be written.

Here's what some known entries look like.
Cc1cc2cnc(NC3CCN(S(C)(=O)=O)CC3)nc2n([C@@H]2CCC[C@@]2(C)O)c1=O [Comp. 4, reference compound]
7.7
C[C@@]1(O)CCC[C@H]1n1c(=O)ccc2cnc(NC3CCN(S(C)(=O)=O)CC3)nc21 [Comp. 6, reference compound]
11.6
[2H]C([2H])([2H])c1cc2cnc(NC3CCN(S(C)(=O)=O)CC3)nc2n([C@@H]2CCC[C@@]2(C)O)c1=O [Comp. 37]
28.9

Here is another compound to look at.
Input line: // half-life at 1 μM lookup, key: [2H]C1(Nc2ncc3ccc(=O)n([C@@H]4CCC[C@@]4(C)O)c3n2)CCN(S(C)(=O)=O)CC1 [Comp. 47]
Output line: 16.5

###

# procedure.details: Body weight in the HCC1806 xenograft study
# Format: in vivo, BALB/c nude mice
# measurement.setup: group mean, 30 mg/kg P.O. BID, day 7
Let's look at some molecules and their measured Body weight D7.
Give just the numeric value; g need not be written.

Here's what some known entries look like.
[2H]C([2H])([2H])c1cc2cnc(NC3([2H])C([2H])([2H])CN(S(C)(=O)=O)CC3([2H])[2H])nc2n([C@@H]2CCC[C@@]2(C)O)c1=O
18.70
C[C@@]1(O)CCC[C@H]1n1c(=O)c(C(F)F)cc2cnc(NC3CCN(S(C)(=O)=O)CC3)nc21 [Comp. 5, reference compound]
18.12

Here is another molecule to look at.
Input line: // Body weight D7 lookup, key: [2H]C([2H])([2H])c1cc2cnc(NC3([2H])C([2H])([2H])CN(S(=O)(=O)C([2H])([2H])[2H])CC3([2H])[2H])nc2n([C@@H]2CCC[C@@]2(C)O)c1=O
Output line: 17.72
